testTarget: GLP-1 receptor (GLP-1R), primary cAMP assay (human, UniProt P43220 24-463)
procedureDetails: cell-based or functional assay
Starred links: 1 amine or outer side, 2 acyl side, 3 side chain; linkers in the order of their positions; H or OH if unused. Non-standard residues stand in square brackets, D forms with d. Groups on a side chain read outwards from the residue. Primed or numbered codes have the meaning given here. No end group written: not given here. *: point of attachment. Tyr(OMe) = COc1ccc(C[C@H](N[*:1])C(=O)[*:2])cc1; γGlu = O=C(O)[C@H](CCC(=O)[*:2])N[*:1]; Palmitoyl = CCCCCCCCCCCCCCCC(=O)*; αMeF = C[C@](N)(Cc1ccccc1)C(=O)O; αMeK = C[C@](N)(CCCCN)C(=O)O; Lauroyl = CCCCCCCCCCCC(=O)*; αMeS = C[C@](N)(CO)C(=O)O; PEG2′ = not defined here; Aib = CC(C)(N)C(=O)O
Below, each entry is listed alongside its reported Primary assay EC50 (cAMP) Mean.

{"binder": "H[Aib]EGTFTSDVSK([PEG2′-PEG2′-γGlu-Lauroyl])YLEGEAAEEFIK([PEG2′-PEG2′-γGlu-Lauroyl])FVVEGG-NH2 [SEQ ID NO: 238]", "Primary assay EC50 (cAMP) Mean, nM": 0.011}
{"binder": "H[Aib]EGS[αMeF]TSDVSK([PEG2′-PEG2′-γGlu-Lauroyl])YLEGEAA[αMeK]EFIAK([PEG2′-PEG2′-γGlu-Lauroyl])VVEGG-NH2 [SEQ ID NO: 252]", "Primary assay EC50 (cAMP) Mean, nM": 0.0025}
{"binder": "H[Aib]EGS[αMeF]TSDVSK([PEG2′-PEG2′-γGlu-Palmitoyl])YLEGEAA[αMeK]EFIK([PEG2′-PEG2′-γGlu-Palmitoyl])WVVEGG-NH2 [SEQ ID NO: 251]", "Primary assay EC50 (cAMP) Mean, nM": 0.0311}
{"binder": "H[Aib]EGTFTSDVSK([PEG2′-PEG2′-γGlu-Lauroyl])FLEGEAAEEFIK([PEG2′-PEG2′-γGlu-Lauroyl])WVVEGG-NH2 [SEQ ID NO: 237]", "Primary assay EC50 (cAMP) Mean, nM": 0.0209}
{"binder": "H[Aib]EGS[αMeF]TSDV[αMeS]SK([PEG2′-PEG2′-γGlu-Lauroyl])LEGEAA[αMeK]E[Tyr(OMe)]IAK([PEG2′-PEG2′-γGlu-Lauroyl])VVEGG-NH2 [SEQ ID NO: 406]", "Primary assay EC50 (cAMP) Mean, nM": 0.0023}
{"binder": "H[Aib]EGS[αMeF]TSDK([PEG2′-PEG2′-γGlu-Lauroyl])SSYLEGEAA[αMeK]EFIK([PEG2′-PEG2′-γGlu-Lauroyl])WVVEGG-NH2 [SEQ ID NO: 256]", "Primary assay EC50 (cAMP) Mean, nM": 0.0075}
{"binder": "H[Aib]EGTFTSDVSK([PEG2′-PEG2′-γGlu-Palmitoyl])YLEGEAAEEFIK([PEG2′-PEG2′-γGlu-Palmitoyl])WVVEGG-NH2 [SEQ ID NO: 242]", "Primary assay EC50 (cAMP) Mean, nM": 3.85}
{"binder": "H[Aib]EGS[αMeF]TSDVSK([PEG2′-PEG2′-γGlu-Palmitoyl])YLEGEAA[αMeK]EFIAK([PEG2′-PEG2′-γGlu-Palmitoyl])VVEGG-NH2 [SEQ ID NO: 254]", "Primary assay EC50 (cAMP) Mean, nM": 0.205}
